test system: TTR; assay: TTR editing in HUH7 cells transfected with Spy Cas9 mRNA and dgRNAs (Table 5); type: cell-based, human; details: HUH7 cells co-transfected with Spy Cas9 mRNA (SEQ ID NO:2) and dgRNAs
parameter: Avg % Deletion (%)
Write it as a number; the unit % goes unstated.

GUAUUCACAGCCAACGACUC (tested as dual guide RNA, chemistry not given here) [CR003373] = 25.12
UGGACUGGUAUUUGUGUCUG (tested as dual guide RNA, chemistry not given here) [CR003340] = 14.23

Query: Tell me the measured Avg % Deletion of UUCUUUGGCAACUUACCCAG (tested as dual guide RNA, chemistry not given here) [CR003357] , please.
Response: 30.82

Query: Consider the sequence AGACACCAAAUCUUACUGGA (tested as dual guide RNA, chemistry not given here) [CR003367] and give its measured Avg % Deletion.
Response: 33.48

Query: Would you mind telling me what Avg % Deletion value was observed for GGCGGCAAUGGUGUAGCGGC (tested as dual guide RNA, chemistry not given here) [CR003378] ?
Response: 32.27

* * *

System: TTR
Test: TTR editing in primary human hepatocytes electroporated with Spy Cas9 protein loaded with dgRNAs (Table 7)
Type: cell-based
Settings: dgRNA electroporated with Spy Cas9 protein (RNP)
Protocol: Primary liver hepatocytes. Primary human liver hepatocytes (PHH) and primary cynomolgus liver hepatocytes (PCH) (Gibco) were cultured per the manufacturer's protocol (Invitrogen, protocol 11.28.2012). […] Cells were counted and plated on Bio-coat collagen I coated 96-well plates (ThermoFisher, Cat. 877272) at a density of 33,000 cells/well for human or 60,000 cells/well for cyno (or 65,000 cells/well when assaying effects on TTR protein, described further below). […]
Outcome label depends on Avg % Deletion relative to 0.7%: at/above gives Condition met, below gives Condition not met.

Query: // inclusive: Avg % Deletion at least 0.7%? input: AAAUCUUACUGGAAGGCACU (tested as dual guide RNA, chemistry not given here) [CR005306]
Response: Condition met

* * *

test system: TTR; assay: TTR editing in primary human hepatocytes transfected with Spy Cas9 mRNA and dgRNAs (Table 9); format: cell-based; conditions: dgRNA co-transfected with Spy Cas9 mRNA (SEQ ID NO:2)
Where Avg % Deletion equals or exceeds 2%, the correct label is 1; where it does not, the label is -1.

Query: Kindly determine if Avg % Deletion recorded for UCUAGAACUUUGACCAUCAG (tested as dual guide RNA, chemistry not given here) [CR003345] is above or exactly 2%.
Response: 1

Query: Form field: Avg % Deletion at least 2%? Entry: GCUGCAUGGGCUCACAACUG (tested as dual guide RNA, chemistry not given here) [CR003361]
Response: -1

Query: Hi team, for AGCCUUUCUGAACACAUGCA (tested as dual guide RNA, chemistry not given here) [CR003351] , is the recorded Avg % Deletion at or above 2%?
Response: 1

Query: Item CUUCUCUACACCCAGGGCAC (tested as dual guide RNA, chemistry not given here) [CR003342] with Avg % Deletion of 2% or above?
Response: -1

Query: Textbook exercise: given the entry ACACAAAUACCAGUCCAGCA (tested as dual guide RNA, chemistry not given here) [CR003339] , state whether its Avg % Deletion is greater than or equal to 2%.
Response: 1

Query: Could you please find out whether AAUGGUGUAGCGGCGGGGGC (tested as dual guide RNA, chemistry not given here) [CR003375] has Avg % Deletion that meets 2% or exceeds it?
Response: -1

Query: Dear colleague, could you confirm whether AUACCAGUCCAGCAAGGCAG (tested as dual guide RNA, chemistry not given here) [CR003338] has Avg % Deletion at or above 2%?
Response: 1

Query: # bool: Avg % Deletion of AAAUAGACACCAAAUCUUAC (tested as dual guide RNA, chemistry not given here) [CR003366] >= 2%
Response: 1

Query: Is Avg % Deletion at least 2%? Consider UGAAUCCAAGUGUCCUCUGA (tested as dual guide RNA, chemistry not given here) [CR005303]
Response: -1

Query: Determine whether measured Avg % Deletion meets or exceeds 2% for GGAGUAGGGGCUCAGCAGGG (tested as dual guide RNA, chemistry not given here) [CR003382]
Response: -1
